The entries below are paired with their reported log10 Kd.
Target: T1, EsCas13d, nuclease-dead (Eubacterium siraeum, UniProt B0MS50, R295A;H300A;R849A;H854A)
T1 sequence: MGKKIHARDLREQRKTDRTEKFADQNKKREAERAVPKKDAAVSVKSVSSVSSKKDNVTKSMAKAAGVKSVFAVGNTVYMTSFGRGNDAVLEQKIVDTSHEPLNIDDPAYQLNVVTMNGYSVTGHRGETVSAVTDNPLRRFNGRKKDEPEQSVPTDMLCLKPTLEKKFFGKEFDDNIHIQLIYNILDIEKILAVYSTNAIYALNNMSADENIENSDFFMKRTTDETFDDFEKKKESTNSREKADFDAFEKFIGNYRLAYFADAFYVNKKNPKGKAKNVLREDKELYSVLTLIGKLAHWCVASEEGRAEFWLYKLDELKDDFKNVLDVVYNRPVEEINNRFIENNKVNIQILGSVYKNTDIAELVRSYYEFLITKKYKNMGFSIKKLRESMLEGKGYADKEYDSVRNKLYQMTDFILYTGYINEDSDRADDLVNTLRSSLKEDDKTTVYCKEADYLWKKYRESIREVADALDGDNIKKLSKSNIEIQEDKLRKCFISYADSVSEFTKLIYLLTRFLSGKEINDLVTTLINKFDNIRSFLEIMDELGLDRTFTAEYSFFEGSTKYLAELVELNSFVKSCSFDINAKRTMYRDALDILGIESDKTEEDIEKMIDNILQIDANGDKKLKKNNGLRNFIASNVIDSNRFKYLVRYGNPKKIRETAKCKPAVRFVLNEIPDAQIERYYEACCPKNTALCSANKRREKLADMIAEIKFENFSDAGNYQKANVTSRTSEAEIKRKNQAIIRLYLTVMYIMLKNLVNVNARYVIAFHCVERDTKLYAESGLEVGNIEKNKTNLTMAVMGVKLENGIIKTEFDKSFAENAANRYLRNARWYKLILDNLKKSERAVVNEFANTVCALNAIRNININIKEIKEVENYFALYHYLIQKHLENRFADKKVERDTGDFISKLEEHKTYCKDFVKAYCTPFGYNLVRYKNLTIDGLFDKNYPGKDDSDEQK
Experiment: crRNA (strand 1, pre-loaded); Mg2+; 40 mM Tris-HCl pH 7.5, 150 mM NaCl, 6 mM MgCl2, 1 mM DTT, 0.1% Tween-20, 0.2 mg/ml BSA; 25 C; 10 min per concentration, then washed
Conditions: tags: His6-TwinStrep-SUMO cleaved; N-terminal SNAP kept (SNAP-Surface 488); label: 3' end held by stalled T7 RNA polymerase
Could you please treat all values as log10 of Kd in µM?

[[record]]
binder = "target 1 C7A,U11G (mixed) RNA 1: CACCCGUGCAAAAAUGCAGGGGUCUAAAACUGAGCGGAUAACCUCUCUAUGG RNA 2: GGGAAUGGAUCCACAUCUACGAAUUCGUACCAUAGAGAGGGUAUACGCUCACCGAGAUCGGAAGAGCACACGU"
value_reported = -1.87

[[record]]
binder = "target 1 U3A,A9G (mixed) RNA 1: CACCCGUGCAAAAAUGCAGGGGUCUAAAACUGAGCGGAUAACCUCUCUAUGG RNA 2: GGGAAUGGAUCCACAUCUACGAAUUCGUACCAUAGAGAGGUUGUCCGCACACCGAGAUCGGAAGAGCACACGU"
value_reported = -2.13

[[record]]
binder = "target 1 insA 3' of 22,insC 3' of 5 (mixed) RNA 1: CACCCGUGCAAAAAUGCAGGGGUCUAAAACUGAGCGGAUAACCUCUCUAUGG RNA 2: GGGAAUGGAUCCACAUCUACGAAUUCGUACACAUAGAGAGGUUAUCCGCCUCACCGAGAUCGGAAGAGCACACGU"
value_reported = -1.56

[[record]]
binder = "target 1 insU 3' of 13,insG 3' of 11 (mixed) RNA 1: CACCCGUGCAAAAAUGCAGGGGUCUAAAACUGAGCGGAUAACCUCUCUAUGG RNA 2: GGGAAUGGAUCCACAUCUACGAAUUCGUACCAUAGAGAGUGUGUAUCCGCUCACCGAGAUCGGAAGAGCACACGU"
value_reported = -1.41

[[record]]
binder = "target 1 insA 3' of 12,insA 3' of 5 (mixed) RNA 1: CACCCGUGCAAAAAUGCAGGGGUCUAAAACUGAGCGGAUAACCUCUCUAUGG RNA 2: GGGAAUGGAUCCACAUCUACGAAUUCGUACCAUAGAGAGGAUUAUCCGACUCACCGAGAUCGGAAGAGCACACGU"
value_reported = -1.76

[[record]]
binder = "target 3 U7G,U8A (mixed) RNA 1: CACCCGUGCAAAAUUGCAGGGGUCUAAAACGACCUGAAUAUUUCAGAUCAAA RNA 2: GGGAAUGGAUCCACAUCUACGAAUUCGUUUUUGAUCUGAAAUAAGCAGGUCUGCAGAUCGGAAGAGCACACGU"
value_reported = -1.17

[[record]]
binder = "target 1 MT 5'PFS CAG 3'PFS UCC (mixed) RNA 1: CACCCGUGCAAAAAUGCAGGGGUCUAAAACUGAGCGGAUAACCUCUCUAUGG RNA 2: GGGAAUGGAUCCACAUCUACGAAUUCCAGCCAUAGAGAGGUUAUCCGCUCAUCCAGAUCGGAAGAGCACACGU"
value_reported = -1.92


# next binder below
IN: Find the recorded log10 Kd belonging to target 2 MT 5'PFS UGG 3'PFS AUG (mixed) RNA 1: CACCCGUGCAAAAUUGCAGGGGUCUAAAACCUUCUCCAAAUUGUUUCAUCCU RNA 2: GGGAAUGGAUCCACAUCUACGAAUUCUGGAGGAUGAAACAAUUUGGAGAAGAUGAGAUCGGAAGAGCACACGU and report it.
OUT: -2.28
